Molecular target: human mu opioid receptor (Homo sapiens, UniProt P35372)
Sequence (P35372 whole entry): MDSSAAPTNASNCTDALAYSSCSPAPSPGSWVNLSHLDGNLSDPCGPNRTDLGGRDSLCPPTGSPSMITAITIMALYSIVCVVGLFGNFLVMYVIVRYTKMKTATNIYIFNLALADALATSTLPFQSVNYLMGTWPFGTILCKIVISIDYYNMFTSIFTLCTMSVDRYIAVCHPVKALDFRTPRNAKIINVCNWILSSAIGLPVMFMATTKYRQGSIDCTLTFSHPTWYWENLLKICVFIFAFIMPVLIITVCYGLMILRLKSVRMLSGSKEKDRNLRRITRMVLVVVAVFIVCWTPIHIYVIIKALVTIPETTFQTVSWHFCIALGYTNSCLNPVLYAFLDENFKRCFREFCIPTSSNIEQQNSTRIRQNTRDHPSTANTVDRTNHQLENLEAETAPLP
pKi: −log10 of the molar value. Structures can show the parent of a compound that is named as a salt.

[
  {
    "compound": "NC(=O)c1cccc(C2CC3CCC(C2)N3CCN(CC2CCCCC2)C(=O)[C@@H](O)CO)c1 (stereo partly shown) [sulfate salt of compound 1]",
    "pKi": 9.90
  }
]
